- tgt: MAP2 (Homo sapiens)
- Sequence (P11137 whole entry): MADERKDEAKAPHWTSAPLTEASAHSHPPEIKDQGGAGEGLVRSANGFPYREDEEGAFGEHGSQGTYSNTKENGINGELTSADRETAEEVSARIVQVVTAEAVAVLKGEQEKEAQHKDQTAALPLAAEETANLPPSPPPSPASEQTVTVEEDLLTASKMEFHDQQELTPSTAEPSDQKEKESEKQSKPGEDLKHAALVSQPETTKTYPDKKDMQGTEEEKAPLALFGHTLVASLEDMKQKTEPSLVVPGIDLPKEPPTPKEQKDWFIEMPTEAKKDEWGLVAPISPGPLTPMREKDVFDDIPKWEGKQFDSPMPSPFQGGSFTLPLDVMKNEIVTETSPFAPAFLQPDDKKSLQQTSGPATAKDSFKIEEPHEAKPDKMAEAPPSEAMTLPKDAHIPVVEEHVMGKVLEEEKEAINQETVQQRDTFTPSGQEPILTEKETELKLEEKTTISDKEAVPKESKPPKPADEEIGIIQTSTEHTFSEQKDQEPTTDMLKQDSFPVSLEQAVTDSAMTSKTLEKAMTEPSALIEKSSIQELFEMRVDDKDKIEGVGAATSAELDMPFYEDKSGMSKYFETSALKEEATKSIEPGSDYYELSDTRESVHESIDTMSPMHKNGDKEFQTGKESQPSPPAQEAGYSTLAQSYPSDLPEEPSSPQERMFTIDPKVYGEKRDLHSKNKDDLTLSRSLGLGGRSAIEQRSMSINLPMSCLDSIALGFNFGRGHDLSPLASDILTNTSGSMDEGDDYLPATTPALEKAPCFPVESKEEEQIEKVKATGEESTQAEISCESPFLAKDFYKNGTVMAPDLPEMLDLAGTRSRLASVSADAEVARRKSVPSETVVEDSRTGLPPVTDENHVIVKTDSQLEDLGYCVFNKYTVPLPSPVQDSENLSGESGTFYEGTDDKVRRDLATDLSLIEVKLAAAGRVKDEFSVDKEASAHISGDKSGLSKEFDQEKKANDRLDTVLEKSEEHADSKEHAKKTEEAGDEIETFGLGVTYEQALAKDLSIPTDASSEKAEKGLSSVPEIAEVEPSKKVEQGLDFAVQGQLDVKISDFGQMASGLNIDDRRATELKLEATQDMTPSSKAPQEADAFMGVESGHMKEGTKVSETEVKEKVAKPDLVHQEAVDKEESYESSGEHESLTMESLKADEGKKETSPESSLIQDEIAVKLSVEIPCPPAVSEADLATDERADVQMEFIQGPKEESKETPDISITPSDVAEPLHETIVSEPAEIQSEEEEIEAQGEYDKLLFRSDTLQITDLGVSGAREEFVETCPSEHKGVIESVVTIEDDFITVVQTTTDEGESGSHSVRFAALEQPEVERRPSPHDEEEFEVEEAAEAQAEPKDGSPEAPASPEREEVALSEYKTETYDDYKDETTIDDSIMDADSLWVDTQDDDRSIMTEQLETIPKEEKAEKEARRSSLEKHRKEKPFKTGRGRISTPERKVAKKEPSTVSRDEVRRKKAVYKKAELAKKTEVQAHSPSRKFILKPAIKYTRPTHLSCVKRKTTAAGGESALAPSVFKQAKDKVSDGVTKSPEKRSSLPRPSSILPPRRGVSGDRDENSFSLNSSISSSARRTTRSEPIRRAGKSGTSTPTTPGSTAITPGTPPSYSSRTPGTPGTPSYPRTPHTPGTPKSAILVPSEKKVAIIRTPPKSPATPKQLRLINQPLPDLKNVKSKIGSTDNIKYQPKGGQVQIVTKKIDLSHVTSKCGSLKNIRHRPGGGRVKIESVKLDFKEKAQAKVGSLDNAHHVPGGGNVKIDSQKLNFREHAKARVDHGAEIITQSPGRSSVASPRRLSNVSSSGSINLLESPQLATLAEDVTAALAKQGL
- experimental.protocol: Binding by displacement of PREG-3H
measurement.type: Affinity (index of binding, percent of PREG)

Some solved cases for reference:
* CO[C@H]1CC[C@@]2(C)C(CCC3C2CC[C@@]2(C)C3CC[C@@H]2[C@@H](C)O)C1 (stereo partly drawn) [3B-methoxy-5a-pregnane-20B-ol, 3β-methoxy-5α-pregnane-20β-ol] | 65% of PREG
* CO[C@H]1CC[C@@]2(C)C(=CC[C@@H]3[C@@H]2CC[C@@]2(C)[C@H]3CC[C@@]2(C(C)=O)C(Cl)Cl)C1 | 53% of PREG
* CO[C@H]1CC[C@@]2(C)[C@@H](CC[C@@H]3[C@@H]2CC[C@]2(C)[C@@H](C(C)=O)CC[C@@H]32)C1 [3B-methoxy-5a-pregnane-20-one, 3β-methoxy-5α-pregnane-20-one] | 87% of PREG
* CO[C@H]1CC[C@@]2(C)C(=CC[C@H]3C4=CC[C@H](C(C)=O)[C@@]4(C)CC[C@@H]32)C1 [3B-methoxy-pregna-5,14-diene-20-one] | 102% of PREG
* CC(=O)[C@H]1CC[C@H]2[C@@H]3CC=C4C[C@@H](O)CC[C@]4(C)[C@H]3CC[C@]12C [Pregnenolone (PREG), 3β-hydroxypregn-5-en-20-one, reference compound] | 100% of PREG

Proceed to the following item.
Sample CO[C@H]1CC[C@@]2(C)C(=CC[C@H]3[C@@H]4CC[C@H](C(C)=O)[C@@]4(C)CC[C@@H]32)C1 [MAP4343, 3β-methoxy-pregna-5-ene-20-one] ; Affinity (index of binding, percent of PREG) observed: 100% of PREG
